Biological target: Norwalk GGI.1 Norovirus protease (Norovirus, UniProt Q83883)
Sequence (Q83883 1101-1281): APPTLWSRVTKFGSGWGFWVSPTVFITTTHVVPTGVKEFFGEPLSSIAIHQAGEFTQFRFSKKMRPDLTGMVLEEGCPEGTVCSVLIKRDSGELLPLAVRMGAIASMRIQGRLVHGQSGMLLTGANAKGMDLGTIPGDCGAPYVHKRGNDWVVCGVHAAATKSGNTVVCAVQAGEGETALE
Test: Noro-Norwalk FRET protease assay (Norwalk GGI.1)
Assay type: biochemical, Norwalk virus
Settings: Table D; FRET protease assay; read-out: Norwalk GGI.1 IC50
observationType: IC50

1. CCOP(=O)(OCC)C(O)[C@@H]1CC(C(=O)NC)C/C=C/CCC(Cc2ccccc2)OC(=O)N[C@@H](CC(C)C)C(=O)N1 (stereo partly shown) [Compound B27]; 57.9 µM
2. CON(C)C(=O)C1CC(C(=O)N(C)C)CCCCCC(Cc2ccccc2)OC(=O)N[C@@H](CC(C)C)C(=O)N1 (stereo in doubt) [Compound B43]; 105 µM
3. CCCCCCCC1CC/C=C/CC(C(=O)NC)C[C@@H](C(=O)N(C)OC)NC(=O)C(CC(C)C)NC(=O)O1 (single isomer, unassigned) [Compound B37]; > 200 µM

--- query ---
Norwalk GGI.1 Norovirus protease (Norovirus, UniProt Q83883) / IC50 / CCCCCCCC1CCC/C=C/CC(C(=O)N(C)C)C[C@@H](C=O)NC(=O)C(CC(C)C)NC1=O (stereo partly shown) [Compound B4] : value? 149 µM

---

Biological target: SARS2 protease (Severe acute respiratory syndrome coronavirus 2, UniProt P0DTD1)
Assay: SARS-CoV-2 protease inhibition assay (SARS2 FRET protease assay)
Type: biochemical
Details: Table E; SARS-CoV-2 protease inhibition; read-out: IC50
pIC50: −log10 of the molar value. Where a SMILES comes first, the peptide text is derived from it. [ ]: non-standard residue; d: D form. The star is where a group is joined. ξ: configuration not given here. ξαMeE = CC(N)(CCC(=O)O)C(=O)O; Nonanoyl = CCCCCCCCC(=O)*
observationType: pIC50

1) CCCCCCCCC(=O)N[C@@H](CC(C)C)C(=O)NC(C)(C=O)CCC(=O)N(C)C (stereo partly drawn) [Compound A1] (Nonanoyl-Leu-[ξαMeE](NMe2)-aldehyde); < 3.70
2) CCOCCOCCN(C)C(=O)CC[C@H](NC(=O)[C@H](CC1CCCCC1)NC(=O)OCc1cccc(Cl)c1)C(=O)N(C)OC [Compound A20]; < 3.70

--- query ---
Consider the molecule CCCCCCCC1CCCCCCCC(C(=O)N(C)C)CC(C=O)NC(=O)[C@H](CC(C)C)NC1=O (stereo in doubt) [Compound B17] and give its measured pIC50. < 3.70

---

Molecular target: HuNV GGII.4 Norovirus protease (Norovirus GII.4 (human norovirus genogroup II genotype 4))
Assay: Norovirus protease FRET assay (HuNV GGII.4)
Format: biochemical
Conditions: Table C; FRET protease assay; read-out: HuNV GGII.4 IC50
observationType: IC50 (µM)
Give just the numeric value; µM need not be written.

Here's what some known entries look like.
1. CCCCCN(C)C(=O)CC[C@H](NC(=O)[C@H](CC1CCCCC1)NC(=O)OCc1cccc(Cl)c1)C(O)P(=O)(OCC)OCC (stereo partly drawn); 154
2. CCOP(=O)(OCC)C(O)[C@H](CCC(=O)N(C)c1ccccc1)NC(=O)[C@H](CC1CCCCC1)NC(=O)OCc1cccc(Cl)c1 (stereo partly drawn); 70.1
3. CCNC(=O)CN(C)C(=O)CC[C@@H](C=O)NC(=O)[C@H](CC1CCCCC1)NC(=O)OCc1cccc(Cl)c1; 11.3

--- query ---
HuNV GGII.4 Norovirus protease (Norovirus GII.4 (human norovirus genogroup II genotype 4)) / IC50 / CON(C)C(=O)[C@H](CCC(=O)N(C)CCc1ccccc1Cl)NC(=O)[C@H](CC1CCCCC1)NC(=O)OCc1cccc(Cl)c1 (stereo in doubt) : value? 100

---

Consider the following compounds and their measured IC50 readings.
Target: SARS2 protease (Severe acute respiratory syndrome coronavirus 2, UniProt P0DTD1)
Assay: SARS-CoV-2 protease inhibition assay (SARS2 FRET protease assay)
Assay type: biochemical
Conditions: Table E; SARS-CoV-2 protease inhibition; read-out: IC50

1. CCOP(=O)(OCC)C(O)[C@H](CCC(=O)N(C)CCc1ccc(Cl)cc1)NC(=O)C(CC1CCCCC1)NC(=O)OCc1cccc(Cl)c1 (stereo in doubt) [Compound A40]; > 200 µM

Consider the compound CN(CCc1ccccc1)C(=O)CC[C@@H](CO)NC(=O)[C@H](CC1CCCCC1)NC(=O)OCc1cccc(Cl)c1 [Compound A26] and give its measured IC50. 14.7 µM

Consider the compound CCOP(=O)(OCC)[C@H](O)[C@@H]1CC(C(=O)N(C)Cc2ccc(OC)cc2OC)C/C=C/CCC(Cc2ccccc2)OC(=O)N[C@@H](CC(C)C)C(=O)N1 (stereo partly drawn) [Compound B28] and give its measured IC50. > 200 µM

---

Molecular target: HuNV GGII.4 Norovirus protease (Norovirus GII.4 (human norovirus genogroup II genotype 4))
Assay: Norovirus protease FRET assay (HuNV GGII.4)
Format: biochemical
Conditions: Table C; FRET protease assay; read-out: HuNV GGII.4 IC50
pIC50: −log10 of the molar value.
Decide by pIC50: equal to or exceeding 4 means y, less means n.

1. CCNC(=O)OCCN(C)C(=O)CC[C@@H](C=O)NC(=O)[C@H](CC1CCCCC1)NC(=O)OCc1cccc(Cl)c1 (stereo in doubt) [Compound A46]; y
2. CCOP(=O)(OCC)C(O)[C@H](CCC(=O)N1CCOC(c2ccccc2)C1)NC(=O)[C@H](CC1CCCCC1)NC(=O)OCc1cccc(Cl)c1 (stereo partly shown) [Compound A54]; n
3. CN(C(=O)CC[C@@H](C=O)NC(=O)[C@H](CC1CCCCC1)NC(=O)OCc1cccc(Cl)c1)c1ccccc1 [Compound A19]; y
4. CCNC(=O)NCCN(C)C(=O)CC[C@H](NC(=O)[C@H](CC1CCCCC1)NC(=O)OCc1cccc(Cl)c1)C(O)P(=O)(OCC)OCC (stereo partly shown) [Compound A16]; n
5. CCOCCOCCN(C)C(=O)CC[C@@H](C=O)NC(=O)[C@H](CC1CCCCC1)NC(=O)OCc1cccc(Cl)c1 [Compound A25]; y

Dear colleague, could you confirm whether CN(C)C(=O)CC[C@@H](C=O)NC(=O)[C@H](CC1CCCCC1)NC(=O)OCc1cccc(Cl)c1 [Compound A6] has pIC50 at or above 4? y

---

Target: HuNV GGII.4 Norovirus protease (Norovirus GII.4 (human norovirus genogroup II genotype 4), UniProt P54634)
Sequence (P54634 1009-1189): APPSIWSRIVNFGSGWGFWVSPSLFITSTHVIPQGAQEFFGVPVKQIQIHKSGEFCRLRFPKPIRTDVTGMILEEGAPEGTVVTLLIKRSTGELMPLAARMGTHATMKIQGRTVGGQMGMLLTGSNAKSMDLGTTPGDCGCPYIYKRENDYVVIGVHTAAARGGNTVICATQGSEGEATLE
Assay: Norovirus protease FRET assay (HuNV GGII.4)
Type: biochemical
observationType: pIC50
Reminder that pIC50 is minus the log10 of a molar concentration.

Consider the compound CCCC1CCCC/C=C/CC(C(=O)N(C)Cc2ccc(OC)cc2OC)C[C@@H](C(O)P(=O)(OCC)OCC)NC(=O)[C@H](CC(C)C)NC1=O (stereo partly shown) and give its measured pIC50. 3.75

---

Target: Norwalk GGI.1 Norovirus protease (Norovirus)
Assay: Noro-Norwalk FRET protease assay (Norwalk GGI.1)
Assay type: biochemical, Norwalk virus
Conditions: Table C; FRET protease assay; read-out: Norwalk GGI.1 IC50
pIC50: −log10 of the molar value.
Decide by pIC50: equal to or exceeding 5 means rule met, less means rule not met.

1) CN(CCc1ccncc1)C(=O)CC[C@@H](C=O)NC(=O)[C@H](CC1CCCCC1)NC(=O)OCc1cccc(Cl)c1; rule met

Dear colleague, could you confirm whether CCOP(=O)(OCC)C(O)[C@H](CCC(=O)N(C)CCc1ccc(Cl)cc1)NC(=O)C(CC1CCCCC1)NC(=O)OCc1cccc(Cl)c1 (stereo in doubt) has pIC50 at or above 5? rule not met

Dear colleague, could you confirm whether CCOP(=O)(OCC)C(O)[C@H](CCC(=O)N(C)CCc1ccccc1)NC(=O)[C@H](CC1CCCCC1)NC(=O)OCc1cccc(Cl)c1 (stereo partly drawn) has pIC50 at or above 5? rule not met

Dear colleague, could you confirm whether CCCCCN(C)C(=O)CC[C@H](NC(=O)[C@H](CC1CCCCC1)NC(=O)OCc1cccc(Cl)c1)C(O)P(=O)(OCC)OCC (stereo partly drawn) has pIC50 at or above 5? rule not met

Dear colleague, could you confirm whether CN(CCc1ccccc1)C(=O)CC[C@@H](C=O)NC(=O)[C@H](CC1CCCCC1)NC(=O)OCc1cccc(Cl)c1 (stereo in doubt) has pIC50 at or above 5? rule met

Dear colleague, could you confirm whether CN(Cc1ccccc1)C(=O)CC[C@@H](C=O)NC(=O)[C@H](CC1CCCCC1)NC(=O)OCc1cccc(Cl)c1 has pIC50 at or above 5? rule met

Dear colleague, could you confirm whether CCOCCN(C)C(=O)CC[C@@H](C=O)NC(=O)[C@H](CC1CCCCC1)NC(=O)OCc1cccc(Cl)c1 has pIC50 at or above 5? rule met

Dear colleague, could you confirm whether CCOP(=O)(OCC)C(O)[C@H](CCC(=O)N1CCOC(c2ccccc2)C1)NC(=O)[C@H](CC1CCCCC1)NC(=O)OCc1cccc(Cl)c1 (stereo partly drawn) has pIC50 at or above 5? rule not met

Dear colleague, could you confirm whether CC(CN(C)C(=O)CC[C@@H](C=O)NC(=O)[C@H](CC1CCCCC1)NC(=O)OCc1cccc(Cl)c1)c1ccccc1 (stereo in doubt) has pIC50 at or above 5? rule not met

Dear colleague, could you confirm whether O=C[C@H](CCC(=O)N1CCCC(c2ccccc2)C1)NC(=O)[C@H](CC1CCCCC1)NC(=O)OCc1cccc(Cl)c1 (stereo in doubt) has pIC50 at or above 5? rule met

All figures here come from patent US20230151034A1.
